Entries and their pIC50
- system-name: UniProt:Q13324
- Sequence (Q13324 1-411): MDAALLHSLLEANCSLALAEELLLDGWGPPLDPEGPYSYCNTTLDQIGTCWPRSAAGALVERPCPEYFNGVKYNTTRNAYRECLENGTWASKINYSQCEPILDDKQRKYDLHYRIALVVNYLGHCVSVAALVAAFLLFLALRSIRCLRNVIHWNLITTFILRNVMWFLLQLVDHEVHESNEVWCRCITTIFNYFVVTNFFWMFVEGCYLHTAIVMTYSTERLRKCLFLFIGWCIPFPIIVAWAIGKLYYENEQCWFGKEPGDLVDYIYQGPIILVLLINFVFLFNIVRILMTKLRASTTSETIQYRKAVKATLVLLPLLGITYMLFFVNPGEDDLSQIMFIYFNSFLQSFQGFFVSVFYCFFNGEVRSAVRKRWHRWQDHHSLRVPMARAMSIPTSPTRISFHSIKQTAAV
- assay-summary: cAMP functional assay for human CRHR2 (LANCE Ultra cAMP, TR-FRET)
- condition-info: CHO-K1 cells expressing human CRHR2-alpha, agonist human urocortin2 at EC80, cAMP; read-out: IC50 against CRHR2
pIC50: −log10 of the molar value.
measured-metric: pIC50

| smiles-data | result-value |
| --- | --- |
| Cc1ncc(Cl)cc1C(=O)N[C@H]1CC[C@H](Cn2c(=O)n(-c3ccc4c(c3)n(C)c(=O)n4C)c3ccccc32)CC1 | > 6.52 |
| Cc1ncc(Cl)cc1C(=O)N[C@H]1CC[C@H](Cn2c(=O)n(-c3ccc(C(=O)Nc4ccn(C)n4)nc3)c3ccccc32)CC1 | > 6.52 |
| CCn1cc2cc(-n3c(=O)n(C[C@H]4CC[C@H](NC(=O)c5cc(Cl)cnc5C)CC4)c4ccccc43)cnc2n1 | > 6.52 |
| O=C(N[C@H]1CC[C@H](Cn2c(=O)n(-c3ccc(NCCO)cn3)c3ccccc32)CC1)c1cc(Cl)cnc1C(F)F | > 6.52 |
| COc1cccc(-n2c(=O)n(C[C@H]3CC[C@H](NC(=O)c4cc(Cl)cnc4C)CC3)c3ccccc32)c1C#N | > 6.52 |
| CNc1ccc(-n2c(=O)n(C[C@H]3CC[C@H](NC(=O)c4cc(Cl)cnc4C(F)F)CC3)c3c(F)cccc32)cn1 | > 6.52 |
| Cc1ncc(Cl)cc1C(=O)N[C@H]1CC[C@H](Cn2c(=O)n(-c3ccc4c(=O)[nH]cnc4c3)c3ccccc32)CC1 | > 6.52 |
| COc1ccc(F)c(-n2c(=O)n(C[C@H]3CC[C@H](NC(=O)c4cc(Cl)cnc4C(F)F)CC3)c3cccnc32)c1 | > 6.52 |
| Cc1ncc(Cl)cc1C(=O)N[C@H]1CC[C@H](Cn2c(=O)n(-c3cncc(N(C)C)c3)c3ccccc32)CC1 | > 6.52 |
| Cc1ncc(Cl)cc1C(=O)N[C@H]1CC[C@H](Cn2c(=O)n(-c3ccc4nnn(C)c4c3)c3ccccc32)CC1 | > 6.52 |
| O=C(N[C@H]1CC[C@H](Cn2c(=O)n(-c3cnc4ccccc4c3)c3ccccc32)CC1)c1cc(Cl)cnc1C(F)(F)F | > 6.52 |
| O=C(N[C@H]1CC[C@H](Cn2c(=O)n(-c3ccc(OCCO)nc3)c3ccccc32)CC1)c1cc(Cl)cnc1C(F)(F)F | > 6.52 |
| Cc1ncc(Cl)cc1C(=O)N[C@H]1CC[C@H](Cn2c(=O)n(-c3ccc(NCC(F)F)nc3)c3ccccc32)CC1 | > 6.52 |

Where do these numbers come from? They come from patent US11802120B2.
